pIC50 values by entry
target: HDAC2 (Homo sapiens, UniProt Q92769); experiment: HDAC enzyme inhibitory activity, FRET method; assay type: biochemical; conditions: Table 4; read-out: IC50 HDAC2
Sequence (Q92769 whole entry, species assumed): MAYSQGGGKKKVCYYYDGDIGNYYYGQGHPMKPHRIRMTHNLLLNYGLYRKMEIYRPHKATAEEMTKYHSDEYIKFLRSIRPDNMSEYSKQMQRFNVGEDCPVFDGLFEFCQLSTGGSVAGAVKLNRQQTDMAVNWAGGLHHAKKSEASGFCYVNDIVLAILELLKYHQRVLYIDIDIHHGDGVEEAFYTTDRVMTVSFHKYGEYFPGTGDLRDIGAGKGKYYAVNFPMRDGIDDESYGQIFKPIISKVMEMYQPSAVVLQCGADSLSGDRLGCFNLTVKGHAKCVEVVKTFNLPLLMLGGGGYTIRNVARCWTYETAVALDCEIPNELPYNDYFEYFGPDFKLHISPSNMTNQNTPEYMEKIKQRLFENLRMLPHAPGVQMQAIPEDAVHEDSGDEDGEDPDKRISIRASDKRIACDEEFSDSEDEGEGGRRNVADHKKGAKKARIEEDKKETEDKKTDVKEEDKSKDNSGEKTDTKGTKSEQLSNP
pIC50: −log10 of the molar value.

Query block: // lookup pIC50 | system=HDAC2 (Homo sapiens, UniProt Q92769) | key= `COC(=O)c1ccc(-c2ccc(N)c(NC(=O)c3ccc(N=S(C)(C)=O)cc3)c2)cc1`
Result block: 5.30 to 6.30

Query block: // lookup pIC50 | system=HDAC2 (Homo sapiens, UniProt Q92769) | key= `CS(C)(=O)=Nc1ccc(C(=O)Nc2cc(-c3ccco3)ccc2N)cc1`
Result block: > 6.30

Query block: // lookup pIC50 | system=HDAC2 (Homo sapiens, UniProt Q92769) | key= `Cc1nn(C)cc1CN1CCS(=O)(=Nc2ccc(C(=O)Nc3cc(-c4ccc(F)cc4)ccc3N)cc2)CC1`
Result block: > 6.30

***
Query block: // lookup pIC50 | system=HDAC2 (Homo sapiens, UniProt Q92769) | key= `CS(C)(=O)=Nc1ccc(C(=O)Nc2cc(-c3cncnc3)ccc2N)cc1`
Result block: > 6.30

Query block: // lookup pIC50 | system=HDAC2 (Homo sapiens, UniProt Q92769) | key= `CS(C)(=O)=Nc1ccc(C(=O)Nc2cc(-c3ccc(F)cc3)ccc2O)cc1`
Result block: 5.30 to 6.30

Query block: // lookup pIC50 | system=HDAC2 (Homo sapiens, UniProt Q92769) | key= `CNC(=O)c1ccc(-c2ccc(N)c(NC(=O)c3ccc(N=S(C)(C)=O)cc3)c2)cc1`
Result block: > 6.30

Query block: // lookup pIC50 | system=HDAC2 (Homo sapiens, UniProt Q92769) | key= `Nc1ccc(-c2ccc(F)s2)cc1NC(=O)c1ccc(N=S2(=O)CCCC2)cc1`
Result block: > 6.30

Query block: // lookup pIC50 | system=HDAC2 (Homo sapiens, UniProt Q92769) | key= `Nc1ccc(-c2cccs2)cc1NC(=O)c1ccc(N=S2(=O)CCCC2)cc1`
Result block: > 6.30

###

CLint scaled at 1 µM values by entry
experiment: Stability in liver microsomes; assay type: in vitro ADME; conditions: Human liver microsomes
Kindly answer with a numeric value in mL/min/kg, unit omitted.

Use these answered entries as a reference point.
Query block: Given the entry Nc1ccc(-c2ccc(F)cc2)cc1NC(=O)c1ccc(N=S2(=O)CCCC2)cc1 [Compound 57] , report its measured CLint scaled at 1 µM.
Result block: 7.51

Query block: Given the entry CS(C)(=O)=Nc1ccc(C(=O)Nc2cc(-c3ccc(Cl)cc3)ccc2N)cc1 [Compound 3] , report its measured CLint scaled at 1 µM.
Result block: 1.85

Query block: Given the entry CS(C)(=O)=Nc1ccc(C(=O)Nc2cc(-c3ccc(F)cc3)ccc2N)cc1 [Compound 1] , report its measured CLint scaled at 1 µM.
Result block: 17.4

// switching to the query compound
Query block: Given the entry CS(C)(=O)=Nc1ccc(C(=O)Nc2cc(-c3ccc(F)s3)ccc2N)cc1 [Compound 33] , report its measured CLint scaled at 1 µM.
Result block: 8.26
